molecular target: human cathepsin K (UniProt P43236); experiment: Cathepsin K Assay (hrbCat K); type: biochemical; conditions: Z-Leu-Arg-AMC substrate, pH 5.5, 15 min preincubation; read-out: hrbCat K (IP (nM))
Measured Metric: IC50 (nM)

• CS(=O)(=O)C1CN(c2ccc(-c3sc(-c4cncc(F)c4)nc3[C@@H]3CCCC[C@H]3C(=O)NC3(C#N)CC3)cc2)C1 [Example 75] = 1.5
• N#CC1(NC(=O)[C@@H]2CCCC[C@H]2c2nc(N3CCCCC3)sc2-c2ccc(N3CCS(=O)(=O)CC3)cc2)CC1 [Example 89] = 3
• CC(C)[C@@H](C#N)NC(=O)[C@@H]1C[C@@H](F)CC[C@H]1c1nc(-c2cncc(F)c2)sc1-c1ccc(N2CCS(=O)(=O)CC2)cc1 [Example 209] = 1.5
• Cc1nc([C@@H]2CC[C@H](F)C[C@H]2C(=O)N[C@H](C#N)C(C)C)c(-c2ccc(N3CCS(=O)(=O)CC3)cc2)s1 [Example 210] = 11.4
• Cc1ncc(-c2nc([C@@H]3CC[C@H](F)C[C@H]3C(=O)NC3(C#N)CC3)c(-c3ccc(N4CCS(=O)(=O)CC4)cc3)s2)s1 [Example 128] = 1.8
• N#CC1(NC(=O)[C@@H]2CCCC[C@H]2c2nc(-c3ccccc3F)sc2-c2ccc(N3CCS(=O)(=O)CC3)cc2)CC1 [Example 55] = 2.5
• CN(CC(F)(F)F)c1nc([C@@H]2CCCC[C@H]2C(=O)NC2(C#N)CC2)c(-c2ccc(N3CCS(=O)(=O)CC3)cc2)s1 [Example 152] = 7
• N#CC1(NC(=O)[C@@H]2CCCC[C@H]2c2nc(-c3cncc(F)c3)sc2-c2ccc(N3CCS(=N)(=O)CC3)cc2)CC1 [Example 135] = 1.2
• CC(C)S(=O)(=O)c1ccc(-c2sc(-c3cncc(F)c3)nc2[C@@H]2CCCC[C@H]2C(=O)NC2(C#N)CC2)cc1 [Example 199] = 25.8
• COc1cccc(-c2nc([C@@H]3CCCC[C@H]3C(=O)NC3(C#N)CC3)c(-c3ccc(N4CCS(=O)(=O)CC4)cc3)s2)c1 [Example 56] = 1.8
• Cc1ccc(-c2nc([C@@H]3CCCC[C@H]3C(=O)NC3(C#N)CC3)c(-c3ccc(N4CCS(=O)(=O)CC4)cc3)s2)c(C#N)c1 [Example 67] = 5.8
• CC(C)(O)c1nc([C@@H]2CCCC[C@H]2C(=O)NC2(C#N)CC2)c(-c2ccc(N3CCS(=O)(=O)CC3)cc2)s1 [Example 208] = 7.9
• CN=S1(=O)CCN(c2ccc(-c3sc(-c4ccc(F)cc4)nc3[C@@H]3CCCC[C@H]3C(=O)NC3(C#N)CC3)cc2)CC1 [Example 160] = 1.6
